- tgt: kinases (Homo sapiens, UniProt P00533, L861Q)
- Construct: purchased Eurofins/DiscoveRx; host or cells: E. coli BL21-derived host (T7 phage display) for most kinases; HEK-293 for the rest
- procedure_summary: KINOMEscan kinase binding assay (Eurofins/DiscoveRx), % Ctrl
- test_settings: 1 μM; target EGFR(L861Q)
recorded_metric: % Ctrl, EGFR(L861Q)
The reply must contain the numeric value and, after it, the unit.

Prompt: Recorded % Ctrl, EGFR(L861Q) of `CN1CCOc2cc3c(cc2Cl)NC(=O)/C3=C\c2[nH]ccc2C(=O)N(C)CC1` , please.
Completion: 63 % Ctrl

Prompt: Next compound: `Cc1cc2c([nH]1)/C=C1\C(=O)Nc3cc(Cl)c(cc31)SCCOCCN(C)C2=O`
Completion: 77 % Ctrl

Prompt: Note, next up: `Cc1cc2c([nH]1)/C=C1\C(=O)Nc3cnc(cc31)-c1cnn(C)c1CN(C)CCN(C)C2=O`
Completion: 75 % Ctrl

Prompt: Next compound up: `Cc1cc2c([nH]1)/C=C1\C(=O)Nc3ccc(cc31)-c1c(noc1C(C)C)COCCN(C)C2=O`
Completion: 100 % Ctrl

Prompt: Continue with `Cc1cc2c([nH]1)/C=C1\C(=O)Nc3ccc(cc31)-c1cnn(C)c1OCCCN(C)C2=O`
Completion: 99 % Ctrl

====

- tgt: kinases (Homo sapiens, UniProt P00519, E255K)
- Construct: purchased Eurofins/DiscoveRx; host or cells: E. coli BL21-derived host (T7 phage display) for most kinases; HEK-293 for the rest
- procedure_summary: KINOMEscan kinase binding assay (Eurofins/DiscoveRx), % Ctrl
- test_settings: 1 μM; ABL1(E255K)-phosphorylated
recorded_metric: % Ctrl, ABL1(E255K)-phosphorylated

Prompt: Return % Ctrl, ABL1(E255K)-phosphorylated measured with kinases (Homo sapiens, UniProt P00519, E255K) given this molecule: `Cc1cc2c([nH]1)/C=C1\C(=O)Nc3ccc(cc31)-c1cnn(C)c1CN(C)CCN(C)C2=O`
Completion: 0.55 % Ctrl

Prompt: // query: `Cc1cc2c([nH]1)/C=C1\C(=O)Nc3ccc(nc31)-c1ccccc1OCCCNC2=O`
Completion: 67 % Ctrl

Prompt: Same question, `Cc1cc2c([nH]1)/C=C1\C(=O)Nc3ccc(cc31)-c1cnn(C)c1COCCN(C)C2=O` this time
Completion: 0 % Ctrl

Prompt: Further, for `Cc1cc2c([nH]1)/C=C1\C(=O)Nc3ccc(cc31)O[C@@H](C)COCCN(C)C2=O` ?
Completion: 22 % Ctrl

====

Kindly state % Ctrl, KIT(A829P) for each of the entries shown.
- tgt: kinases (Homo sapiens, UniProt P10721, A829P)
- Construct: purchased Eurofins/DiscoveRx; host or cells: E. coli BL21-derived host (T7 phage display) for most kinases; HEK-293 for the rest
- Sequence (P10721 26-976 A829P): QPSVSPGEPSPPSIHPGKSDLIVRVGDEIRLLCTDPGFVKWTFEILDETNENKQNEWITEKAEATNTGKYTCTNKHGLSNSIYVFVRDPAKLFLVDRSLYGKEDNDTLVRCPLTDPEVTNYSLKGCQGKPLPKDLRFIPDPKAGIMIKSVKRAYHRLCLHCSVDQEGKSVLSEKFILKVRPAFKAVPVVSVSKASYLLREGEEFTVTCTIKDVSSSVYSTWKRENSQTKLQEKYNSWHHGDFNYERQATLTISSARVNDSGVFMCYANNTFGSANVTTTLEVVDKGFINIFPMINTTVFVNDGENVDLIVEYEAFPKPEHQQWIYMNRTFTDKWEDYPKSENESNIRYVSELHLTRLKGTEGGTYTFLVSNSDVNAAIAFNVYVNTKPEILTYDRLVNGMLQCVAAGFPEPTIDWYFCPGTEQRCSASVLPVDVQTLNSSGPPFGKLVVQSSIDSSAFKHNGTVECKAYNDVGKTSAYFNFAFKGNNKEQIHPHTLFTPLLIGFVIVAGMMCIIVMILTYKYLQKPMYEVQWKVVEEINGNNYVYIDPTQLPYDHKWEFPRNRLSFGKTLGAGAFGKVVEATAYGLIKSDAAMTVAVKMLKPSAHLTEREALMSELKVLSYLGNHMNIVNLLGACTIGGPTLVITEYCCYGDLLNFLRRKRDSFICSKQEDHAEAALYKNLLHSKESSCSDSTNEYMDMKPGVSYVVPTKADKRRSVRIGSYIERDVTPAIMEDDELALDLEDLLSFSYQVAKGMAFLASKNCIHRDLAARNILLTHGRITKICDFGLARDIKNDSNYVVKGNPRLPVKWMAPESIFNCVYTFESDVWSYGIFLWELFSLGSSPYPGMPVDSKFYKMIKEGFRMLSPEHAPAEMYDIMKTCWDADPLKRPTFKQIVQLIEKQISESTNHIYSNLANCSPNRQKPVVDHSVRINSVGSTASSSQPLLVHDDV
- procedure_summary: KINOMEscan kinase binding assay (Eurofins/DiscoveRx), % Ctrl
- test_settings: 1 μM; target KIT(A829P)
Kindly provide the numeric value in % Ctrl only, without the unit symbol.

Prompt: // % Ctrl, KIT(A829P) lookup, key: Cc1cc2c([nH]1)/C=C1\C(=O)Nc3ccc(cc31)-c1cnn(C)c1OCCCN(C)C2=O [Ex. 166]
Completion: 28

Prompt: Next: Cc1cc2c([nH]1)/C=C1\C(=O)Nc3ccc(cc31)-c1c(noc1C(C)C)COCCN(C)C2=O [Ex. 161]
Completion: 95

Prompt: Also Cc1cc2c([nH]1)/C=C1\C(=O)Nc3cc(Cl)c(cc31)SCCOCCN(C)C2=O [Ex. 169] ?
Completion: 22

Prompt: Try CN1CCOc2cc3c(cc2Cl)NC(=O)/C3=C\c2[nH]ccc2C(=O)N(C)CC1 [Ex. 164] next.
Completion: 33

Prompt: Cc1cc2c([nH]1)/C=C1\C(=O)Nc3cnc(cc31)-c1cnn(C)c1CN(C)CCN(C)C2=O [Ex. 172] ?
Completion: 31

====

- tgt: kinases (Homo sapiens, UniProt P00519, T315I)
- Construct: purchased Eurofins/DiscoveRx; host or cells: E. coli BL21-derived host (T7 phage display) for most kinases; HEK-293 for the rest
- procedure_summary: KINOMEscan kinase binding assay (Eurofins/DiscoveRx), % Ctrl
- test_settings: 1 μM; ABL1(T315I)-phosphorylated
recorded_metric: % Ctrl, ABL1(T315I)-phosphorylated (% Ctrl)
Give the number; % Ctrl is assumed, so skip it.

Prompt: API: value(readout=% Ctrl, ABL1(T315I)-phosphorylated, system=kinases (Homo sapiens, UniProt P00519, T315I)) for record `Cc1cc2c([nH]1)/C=C1\C(=O)Nc3ccc(cc31)-c1cnn(C)c1COCCN(C)C2=O`
Completion: 0.1

Prompt: Same question for `Cc1cc2c([nH]1)/C=C1\C(=O)Nc3ccc(cc31)-c1c(noc1C)COCCN(C)C2=O` please.
Completion: 4.2

Prompt: Would you mind doing `Cc1cc2c([nH]1)/C=C1\C(=O)Nc3ccc(cc31)OCCOCCNC2=O` as well?
Completion: 91

Prompt: Lookup `Cc1cc2c([nH]1)/C=C1\C(=O)Nc3ccc(cc31)OCCOCCN(C)C2=O`
Completion: 5.8

Prompt: And what about the compound `Cc1cc2c([nH]1)/C=C1\C(=O)Nc3cc(Cl)c(cc31)OCCO[C@@H](C(=O)N(C)C)CN(C)C2=O` ?
Completion: 69

Prompt: Same question, `CNC(=O)[C@H]1CN(C)C(=O)c2cc(C)[nH]c2/C=C2\C(=O)Nc3cc(Cl)c(cc32)OCCO1` this time
Completion: 72

Prompt: Try this compound too: `Cc1cc2c([nH]1)/C=C1\C(=O)Nc3ccc(cc31)-c1c(C)n[nH]c1CNCCN(C)C2=O`
Completion: 0.65

Prompt: Continue with `Cc1cc2c([nH]1)/C=C1\C(=O)Nc3cc(Cl)c(cc31)OCCO[C@@H](C(=O)N[C@@H]1CCNC1)CN(C)C2=O`
Completion: 37

====

- tgt: kinases (Homo sapiens)
- Construct: purchased Eurofins/DiscoveRx; host or cells: E. coli BL21-derived host (T7 phage display) for most kinases; HEK-293 for the rest
- procedure_summary: KINOMEscan kinase binding assay (Eurofins/DiscoveRx), % Ctrl
- test_settings: 1 μM; target FLT1
Could you label it Y if measured % Ctrl, FLT1 is 30 % Ctrl or higher, and N otherwise?

Prompt: Determine whether measured % Ctrl, FLT1 meets or exceeds 30 % Ctrl for Cc1cc2c([nH]1)/C=C1\C(=O)Nc3ccc(cc31)-c1c(noc1C(C)C)COCCN(C)C2=O [Ex. 161]
Completion: Y

Prompt: For Cc1cc2c([nH]1)/C=C1\C(=O)Nc3ccc(cc31)-c1cnn(C)c1OCCCN(C)C2=O [Ex. 166] then?
Completion: Y

Prompt: Cool, now CN1CCOc2cc3c(cc2Cl)NC(=O)/C3=C\c2[nH]ccc2C(=O)N(C)CC1 [Ex. 164]
Completion: N

Prompt: # repeat for Cc1cc2c([nH]1)/C=C1\C(=O)Nc3cc(Cl)c(cc31)SCCOCCN(C)C2=O [Ex. 169]
Completion: N

Prompt: One more molecule: Cc1cc2c([nH]1)/C=C1\C(=O)Nc3cnc(cc31)-c1cnn(C)c1CN(C)CCN(C)C2=O [Ex. 172]
Completion: N

====

- tgt: kinases (Homo sapiens, UniProt P00533, L858R/T790M)
- Construct: purchased Eurofins/DiscoveRx; host or cells: E. coli BL21-derived host (T7 phage display) for most kinases; HEK-293 for the rest
- procedure_summary: KINOMEscan kinase binding assay (Eurofins/DiscoveRx), % Ctrl
- test_settings: 1 μM; EGFR(L858R, T790M)
recorded_metric: % Ctrl, EGFR(L858R, T790M)
Answer format: value, then unit.

Prompt: Form field: reported % Ctrl, EGFR(L858R, T790M) of `Cc1cc2c([nH]1)/C=C1\C(=O)Nc3cc(Cl)c(cc31)OCCO[C@@H](C(=O)NC1CNC1)CN(C)C2=O`
Completion: 95 % Ctrl

Prompt: Follow-up item: `Cc1cc2c([nH]1)/C=C1\C(=O)Nc3cc(Cl)c(cc31)OCCO[C@@H](C(=O)N[C@@H]1CCNC1)CN(C)C2=O`
Completion: 93 % Ctrl

Prompt: Also need `Cc1cc2c([nH]1)/C=C1\C(=O)Nc3ccc(cc31)OCCOCCN(C)C2=O` , thanks.
Completion: 58 % Ctrl

Prompt: For `Cc1cc2c([nH]1)/C=C1\C(=O)Nc3ccc(cc31)O[C@@H](C)COCCN(C)C2=O` then?
Completion: 100 % Ctrl

Prompt: // next record `Cc1cc2c([nH]1)/C=C1\C(=O)Nc3ccc(cc31)-c1c(noc1C)COCCN(C)C2=O`
Completion: 48 % Ctrl

Prompt: Another molecule: `Cc1cc2c([nH]1)/C=C1\C(=O)Nc3ccc(nc31)-c1ccccc1OCCCNC2=O`
Completion: 97 % Ctrl

Prompt: Then `Cc1cc2c([nH]1)/C=C1\C(=O)Nc3ccc(cc31)-c1ccnn1CCOCCNC2=O` ?
Completion: 90 % Ctrl

Prompt: Try this molecule too: `Cc1cc2c([nH]1)/C=C1\C(=O)Nc3cnc(nc31)N(C)CCCOCCN(C)C2=O`
Completion: 100 % Ctrl
